assay: GSH reactivity assessed as compound remaining at 50 uM after 1 hr at pH 7.4 by LC-UV analysis; assay type: physicochemical; conditions: read-out: Activity
PROPERTY: remaining at 1 h, 50 µM (%)

COc1cc(N2CCN(C)CC2)ccc1Nc1ncc(Cl)c(Oc2cccc(NC(=O)CCN3CCN(CCO)CC3)c2)n1: 100
C=CC(=O)Nc1cccc(Oc2nc(Nc3ccc(N4CCN(C)CC4)cc3OC)ncc2Cl)c1: 73.5

====

What follows is a record of IC50 for Epidermal growth factor receptor (Homo sapiens).
PROPERTY: IC50 (µM)

COc1cc(N2CCN(C)CC2)ccc1Nc1ncc(Cl)c(Oc2cccc(NC(=O)CCN3CCN(C)CC3)c2)n1: 7.44

[P] COc1cc(N2CCN(C)CC2)ccc1Nc1ncc(Cl)c(Oc2cccc(NC(=O)CCN3CCN(CCO)CC3)c2)n1
[Q] COc1cc(N2CCN(C)CC2)ccc1Nc1ncc(Cl)c(Oc2cccc(NC(=O)CCN3CCN(CCOc4no[n+]([O-])c4S(=O)(=O)c4ccccc4)CC3)c2)n1
[R] COc1cc(N2CCN(C)CC2)ccc1Nc1ncc(Cl)c(Oc2cccc(NC(=O)CCN3CCCCC3)c2)n1
Order by IC50, ascending. Thanks in advance for listing the labels in the requested order.
Q, P, R

====

assay: Stability of the compound in rat plasma assessed as compound remaining at 50 uM at pH 7.4 after 24 hrs by LC-UV analysis; type: ADME, cell-free; conditions: pH 7.4, read-out: Stability
PROPERTY: remaining at 24 h, 50 µM (%)
Give the number; % is assumed, so skip it.

Can you look up the measured remaining at 24 h, 50 µM of `COc1cc(N2CCN(C)CC2)ccc1Nc1ncc(Cl)c(Oc2cccc(NC(=O)CCN3CCN(CCO)CC3)c2)n1` for me?
105

Cited source for all entries: ChEMBL document CHEMBL3232794
